measuredOn: TGF-β Type I (RIT204D) receptor (Homo sapiens, UniProt P36897, T204D)
Construct: The 6×-HIS tagged cytoplasmic kinase domain of each receptor was expressed and purified from Sf9 insect cell lysates; 6xHis
Sequence (P36897 148-503 T204D limits assumed): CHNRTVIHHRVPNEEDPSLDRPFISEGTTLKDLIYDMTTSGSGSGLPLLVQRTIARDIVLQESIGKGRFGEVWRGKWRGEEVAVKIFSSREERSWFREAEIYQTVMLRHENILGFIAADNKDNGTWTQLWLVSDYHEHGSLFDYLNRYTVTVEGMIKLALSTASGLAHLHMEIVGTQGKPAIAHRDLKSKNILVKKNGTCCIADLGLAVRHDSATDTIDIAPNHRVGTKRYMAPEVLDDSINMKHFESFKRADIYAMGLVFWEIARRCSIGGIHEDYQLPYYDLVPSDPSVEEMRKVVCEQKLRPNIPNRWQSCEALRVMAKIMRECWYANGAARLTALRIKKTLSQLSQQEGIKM
protocolNotes: TGF-β Receptor I (RIT204D) in vitro kinase reaction
setupConditions: 6×-HIS cytoplasmic kinase domain, 4 uM ATP, 30° C., 1 hr
Items are presented alongside their recorded IC50.

itemSmiles: CNC(=O)c1ccc2c(-c3c(-c4ccccn4)nn4c3CCC4)ccnc2c1
IC50: < 20 µM
--
itemSmiles: CN(C)C(=O)c1cccc(Oc2ccc3c(-c4c(-c5ccccn5)nn5c4CCC5)ccnc3c2)c1
IC50: < 20 µM
--
itemSmiles: CN(C)CCCCOc1cc(-c2c(-c3ccccn3)nn3c2CCC3)ccn1
IC50: < 20 µM
--
itemSmiles: CS(=O)(=O)c1ccc2c(-c3c(-c4ccccn4)nn4c3CCC4)ccnc2c1
IC50: < 20 µM

Shift focus to the following entry.
Q) I'd like to know its IC50. The molecule in question is `CN(C)CCNC(=O)COc1ccc2c(-c3c(-c4ccccn4)nn4c3CCC4)ccnc2c1`
A) < 20 µM
